Measured values drawn from ChEMBL document CHEMBL1781924 for this set.

test system: KB; assay: Cytotoxicity against human KB cells; assay type: functional, cell-based
READOUT TYPE: IC50
Report the figure along with its unit, number first.

Inquiry: Form field: reported IC50 of `O=C1C[C@@H]2/C(=C(O)\C=C\c3ccccc3)C(=O)C=C[C@@H]2O1`
Reply text: 1.8 µM
